Taken from patent US20040266766A1.

- measurement description: Oral bioavailability and plasma kinetics in mice (serum concentration)
- Type: in vivo, Balb/c mice
- test parameters: female, Balb/c, mouse, serum, po, 7.5 mg/kg, 7.5 mg/kg oral, sample at 60 minutes, read-out: c in the serum 1st analysis
Structures can show the parent of a compound that is named as a salt.

# compound, concentration at 60 min
measured = [
    ("N=C(N)Nc1ccc(CNC(=O)[C@H](CCc2ccccc2)NC(=O)C(CO)NS(=O)(=O)Cc2ccccc2)cc1 (some centres unmarked) [WX-550, hydrochloride]", "0 ng/mL"),
    ("C[C@@H](C(=O)NCc1ccc(NC(=N)N)cc1)N(C)C(=O)[C@@H](CO)NS(=O)(=O)Cc1ccc(Cl)cc1", "0 ng/mL"),
]

###

Reported pKi is given for each of the following compounds.
- target or system: urokinase (uPA) (Homo sapiens, UniProt P00749)
- Construct: purchased Calbiochem-Novabiochem GmbH, Bad Soden, Germany
- measurement description: In vitro inhibition of urokinase (Ki according to Dixon, chromogenic substrate)
- Assay type: biochemical
- test parameters: read-out: Ki uPA
pKi: −log10 of the molar value. Structures can show the parent of a compound that is named as a salt.
measurement kind: pKi

# compound, measurement kind, op, numeric readout
records = [
    ("N=C(N)Nc1ccc(CNC(=O)NNC(=O)[C@@H](CO)NS(=O)(=O)Cc2ccccc2)cc1", "pKi", "=", 6.08),
    ("CC(=O)c1ccc(NC(=O)NC(CO)C(=O)NCC(=O)NCc2ccc(NC(=N)N)cc2)cc1 (stereo not shown) [WX-C330, hydrochloride]", "pKi", "<", 4.70),
    ("N=C(N)Nc1ccc(CNC(=O)CNC(=O)[C@@H](CO)NS(=O)(=O)Cc2ccccc2)cc1 [WX-508, hydrochloride]", "pKi", "=", 7.47),
    ("N=C(N)Nc1ccc(CNC(=O)CNC(=O)C(CNC(=O)OCc2ccccc2)NS(=O)(=O)Cc2ccccc2)cc1 (stereo not shown) [WX-M5, hydrochloride]", "pKi", "=", 6.30),
    ("CC1(C)C2CCC1(CS(=O)(=O)NC(CO)C(=O)NCC(=O)NCc1ccc(NC(=N)N)cc1)C(=O)C2 (stereo not shown) [WX-C296, hydrochloride]", "pKi", "=", 6.35),
    ("N=C(N)Nc1ccc(CNC(=O)CNC(=O)C(CO)NC(=O)Nc2ccc3c(c2)OCO3)cc1 (stereo not shown) [WX-C332, hydrochloride]", "pKi", "<", 4.70),
    ("N=C(N)Nc1ccc(CNC(=O)CNC(=O)C(CO)NC(=O)Nc2ccc([N+](=O)[O-])cc2)cc1 (stereo not shown) [WX-C342, hydrochloride]", "pKi", "=", 5.31),
    ("N=C(N)Nc1ccc(CNC(=O)CNC(=O)C(CO)NC(=O)Nc2cccc3ccccc23)cc1 (stereo not shown) [WX-C328, hydrochloride]", "pKi", "<", 4.70),
    ("CN(CC(=O)NCc1ccc(NC(=N)N)cc1)C(=O)C(CO)NS(=O)(=O)Cc1ccccc1 (stereo not shown)", "pKi", "=", 7.39),
    ("N=C(N)Nc1ccc(CNC(=O)CNC(=O)C(CN)NS(=O)(=O)Cc2ccccc2)cc1 (stereo not shown) [WX-M6, bis-hydrochloride]", "pKi", "=", 6.82),
    ("C[C@H](NC(=O)C(CO)NS(=O)(=O)Cc1ccccc1)C(=O)NCc1ccc(NC(=N)N)cc1 (stereo partly shown) [WX-532, hydrochloride]", "pKi", "=", 7.80),
    ("N=C(N)Nc1ccc(CNC(=O)CNC(=O)C(CO)NC(=O)NC23CC4CC(CC(C4)C2)C3)cc1 (stereo not shown) [WX-C320, hydrochloride]", "pKi", "<", 4.70),
    ("COc1cc(NC(=O)NC(CO)C(=O)NCC(=O)NCc2ccc(NC(=N)N)cc2)cc(OC)c1OC (stereo not shown) [WX-C308, hydrochloride]", "pKi", "<", 4.70),
    ("N=C(N)Nc1ccc(CNC(=O)CNC(=O)C(CO)NC(=O)Nc2cccc(C(=O)O)c2)cc1 (stereo not shown) [WX-C324, hydrochloride]", "pKi", "=", 5.51),
    ("CCCCS(=O)(=O)NC(CO)C(=O)NCC(=O)NCc1ccc(NC(=N)N)cc1 (stereo not shown) [WX-C300, hydrochloride]", "pKi", "=", 6.57),
    ("N=C(N)Nc1ccc(CNC(=O)CNC(=O)C(CO)NC(=O)Nc2ccc(Oc3ccccc3)cc2)cc1 (stereo not shown) [WX-C310, hydrochloride]", "pKi", "=", 5.70),
    ("N=C(N)Nc1ccc(CNC(=O)CNC(=O)C(CO)NC(=O)Nc2cccc(Cl)c2Cl)cc1 (stereo not shown) [WX-C334, hydrochloride]", "pKi", "<", 4.70),
    ("CCOC(=O)c1cccc(NC(=O)NC(CO)C(=O)NCC(=O)NCc2ccc(NC(=N)N)cc2)c1 (stereo not shown) [WX-C312, hydrochloride]", "pKi", "=", 5.85),
    ("N=C(N)Nc1ccc(NNC(=O)CNC(=O)[C@@H](CO)NS(=O)(=O)Cc2ccccc2)cc1 [WX-600, hydrochloride]", "pKi", "=", 5.68),
    ("CCOC(=O)c1ccc(NC(=O)NC(CO)C(=O)NCC(=O)NCc2ccc(NC(=N)N)cc2)cc1 (stereo not shown) [WX-C336, hydrochloride]", "pKi", "=", 4.88),
    ("N=C(N)Nc1ccc(CNC(=O)CNC(=O)C(CO)NS(=O)(=O)Cc2cccc(Cl)c2)cc1 (stereo not shown) [WX-C318, hydrochloride]", "pKi", "=", 7.33),
    ("N=C(N)Nc1ccc(CNC(=O)CNC(=O)C(CO)NC(=O)Nc2ccc(Br)cc2Br)cc1 (stereo not shown) [WX-C338, hydrochloride]", "pKi", "<", 4.70),
    ("N=C(N)Nc1ccc(CNC(=O)[C@H](CCc2ccccc2)NC(=O)C(CO)NS(=O)(=O)Cc2ccccc2)cc1 (stereo partly shown) [WX-550, hydrochloride]", "pKi", "=", 7.00),
    ("N=C(N)Nc1ccc(CNC(=O)CNC(=O)C(CO)NS(=O)(=O)Cc2cccc([N+](=O)[O-])c2)cc1 (stereo not shown) [WX-C316, hydrochloride]", "pKi", "=", 7.05),
    ("N=C(N)Nc1ccc(CNC(=O)CNC(=O)C(CO)NS(=O)(=O)Cc2ccc(Cl)cc2)cc1 (stereo not shown) [WX-C340, hydrochloride]", "pKi", "=", 8.00),
    ("N=C(N)Nc1ccc(CNC(=O)CNC(=O)C(CO)NC(=O)Cc2ccc(O)c(O)c2)cc1 (stereo not shown) [WX-571, hydrochloride]", "pKi", "=", 4.83),
    ("N=C(N)Nc1ccc(CNC(=O)CNC(=O)C(CO)NC(=O)Nc2ccccc2Br)cc1 (stereo not shown) [WX-C322, hydrochloride]", "pKi", "<", 4.70),
    ("CCCCCCCCS(=O)(=O)NC(CO)C(=O)NCC(=O)NCc1ccc(NC(=N)N)cc1 (stereo not shown) [WX-C302, hydrochloride]", "pKi", "=", 6.30),
]

###

- measurement description: Oral bioavailability and plasma kinetics in mice (serum concentration)
- Format: in vivo, Balb/c mice
- test parameters: female, Balb/c, mouse, serum, po, 30 mg/kg, 30 mg/kg oral, sample at 60 minutes, read-out: c in the serum 1st analysis
Counter-ions that a name gives are not always drawn.
measurement kind: concentration at 60 min (ng/mL)

# compound, numeric readout
rows = [
    ("CCCCS(=O)(=O)NC(CO)C(=O)NCC(=O)NCc1ccc(NC(=N)N)cc1 (stereo not shown) [WX-C300, hydrochloride]", 200),
    ("N=C(N)Nc1ccc(CNC(=O)CNC(=O)C(CO)NS(=O)(=O)Cc2ccc(Cl)cc2)cc1 (stereo not shown) [WX-C340, hydrochloride]", 1400),
    ("CN(CC(=O)NCc1ccc(NC(=N)N)cc1)C(=O)C(CO)NS(=O)(=O)Cc1ccccc1 (stereo not shown) [WX-538]", 200),
    ("N=C(N)Nc1ccc(CNC(=O)CNC(=O)[C@@H](CO)NS(=O)(=O)Cc2ccccc2)cc1 [WX-508, hydrochloride]", 80),
]

###

- target or system: urokinase (uPA) (Homo sapiens, UniProt P00749)
- Construct: purchased Calbiochem-Novabiochem GmbH, Bad Soden, Germany
- measurement description: In vitro inhibition of urokinase (Ki according to Dixon, chromogenic substrate)
- Assay type: biochemical
- test parameters: summary table; read-out: Ki uPA
Structures can show the parent of a compound that is named as a salt.
Ki strictly under 90 nM means satisfied; at 90 nM or over means not satisfied.

# molecule, target or system, class assignment
records = [
    ("N=C(N)Nc1ccc(CNC(=O)CNC(=O)[C@@H](CO)NS(=O)(=O)Cc2ccccc2)cc1 [WX-508, hydrochloride]", "urokinase (uPA) (Homo sapiens, UniProt P00749)", "satisfied"),
    ("C[C@H](NC(=O)C(CO)NS(=O)(=O)Cc1ccccc1)C(=O)NCc1ccc(NC(=N)N)cc1 (stereo partly drawn) [WX-532, hydrochloride]", "urokinase (uPA) (Homo sapiens, UniProt P00749)", "satisfied"),
    ("N=C(N)Nc1ccc(CNC(=O)CNC(=O)C(CO)NS(=O)(=O)Cc2ccc(Cl)cc2)cc1 (stereo not drawn) [WX-C340, hydrochloride]", "urokinase (uPA) (Homo sapiens, UniProt P00749)", "satisfied"),
    ("N=C(N)Nc1ccc(CNC(=O)CNC(=O)C(CO)NS(=O)(=O)Cc2cccc(Cl)c2)cc1 (stereo not drawn) [WX-C318, hydrochloride]", "urokinase (uPA) (Homo sapiens, UniProt P00749)", "satisfied"),
    ("CN(CC(=O)NCc1ccc(NC(=N)N)cc1)C(=O)C(CO)NS(=O)(=O)Cc1ccccc1 (stereo not drawn) [WX-538]", "urokinase (uPA) (Homo sapiens, UniProt P00749)", "satisfied"),
    ("CCCCS(=O)(=O)NC(CO)C(=O)NCC(=O)NCc1ccc(NC(=N)N)cc1 (stereo not drawn) [WX-C300, hydrochloride]", "urokinase (uPA) (Homo sapiens, UniProt P00749)", "not satisfied"),
    ("N=C(N)Nc1ccc(CNC(=O)[C@H](CCc2ccccc2)NC(=O)C(CO)NS(=O)(=O)Cc2ccccc2)cc1 (stereo partly drawn) [WX-550, hydrochloride]", "urokinase (uPA) (Homo sapiens, UniProt P00749)", "not satisfied"),
    ("CC1(C)C2CCC1(CS(=O)(=O)NC(CO)C(=O)NCC(=O)NCc1ccc(NC(=N)N)cc1)C(=O)C2 (stereo not drawn) [WX-C298, hydrochloride]", "urokinase (uPA) (Homo sapiens, UniProt P00749)", "not satisfied"),
]
